Molecular target: T1, monkey LAG-3 (full length, on the cell surface) (monkey, UniProt P18627 24-525 (human entry))
T1 construct: also called HEK293-cLAG-3; monkey LAG-3 protein on the cell surface
T1 chain: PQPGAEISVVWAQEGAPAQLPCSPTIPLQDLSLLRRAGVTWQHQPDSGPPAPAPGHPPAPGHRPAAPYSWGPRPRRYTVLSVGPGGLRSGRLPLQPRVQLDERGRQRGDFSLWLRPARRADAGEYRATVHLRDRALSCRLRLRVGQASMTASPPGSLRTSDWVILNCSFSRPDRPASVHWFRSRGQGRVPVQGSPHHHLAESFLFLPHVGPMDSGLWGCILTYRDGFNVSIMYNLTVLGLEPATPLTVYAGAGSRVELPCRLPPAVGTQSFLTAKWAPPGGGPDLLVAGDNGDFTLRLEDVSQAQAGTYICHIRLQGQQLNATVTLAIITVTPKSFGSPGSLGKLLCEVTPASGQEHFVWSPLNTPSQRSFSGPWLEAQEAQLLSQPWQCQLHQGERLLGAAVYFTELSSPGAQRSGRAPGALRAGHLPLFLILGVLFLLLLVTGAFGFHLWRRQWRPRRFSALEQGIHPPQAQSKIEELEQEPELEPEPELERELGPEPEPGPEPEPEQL
Experiment: FACS, HEK293-cLAG-3; 40.000 nM
This section presents binders with their documented Mean fluorescence intensity values.
Use MFI as the unit, but write only the number.

Examples with answers:
409B11E12 (mouse antibody purified from hybridoma) (antibody, V domains shown, also called mAb104-409B11E12) VH: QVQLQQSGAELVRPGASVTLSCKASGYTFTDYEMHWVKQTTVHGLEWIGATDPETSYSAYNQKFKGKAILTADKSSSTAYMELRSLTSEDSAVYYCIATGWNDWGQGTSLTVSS VL: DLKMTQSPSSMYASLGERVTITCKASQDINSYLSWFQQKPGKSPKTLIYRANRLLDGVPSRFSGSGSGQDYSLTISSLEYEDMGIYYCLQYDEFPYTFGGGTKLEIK    102
405B8H3 (mouse antibody purified from hybridoma) (antibody, V domains shown, also called mAb103-405B8H3; 405B81-13) VH: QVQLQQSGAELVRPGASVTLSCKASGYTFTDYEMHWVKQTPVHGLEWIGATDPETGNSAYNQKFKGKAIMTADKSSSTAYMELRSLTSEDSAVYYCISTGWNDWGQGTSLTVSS VL: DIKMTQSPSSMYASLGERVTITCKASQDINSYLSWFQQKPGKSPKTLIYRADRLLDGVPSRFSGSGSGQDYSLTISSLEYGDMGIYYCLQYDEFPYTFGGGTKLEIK    108

[Q] For the binder 409D4E10 (mouse antibody purified from hybridoma) (antibody, V domains shown, also called mAb112-409D4E10) VH: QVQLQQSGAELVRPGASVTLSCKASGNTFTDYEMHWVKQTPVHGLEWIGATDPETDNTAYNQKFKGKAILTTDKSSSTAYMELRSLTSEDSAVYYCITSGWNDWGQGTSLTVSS VL: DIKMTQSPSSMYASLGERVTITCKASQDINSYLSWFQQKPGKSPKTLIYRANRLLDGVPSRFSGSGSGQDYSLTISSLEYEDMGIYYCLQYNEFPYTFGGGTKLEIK , give its reported Mean fluorescence intensity.
[A] 130
